Hello, the source for this data is ChEMBL document CHEMBL3758078, in case you need it.

Listed here: items and their measured Ki.
Target: Neuronal acetylcholine receptor; alpha4/beta2 (Rattus norvegicus, UniProt P09483+P12390)
Sequence (P09483 whole entry): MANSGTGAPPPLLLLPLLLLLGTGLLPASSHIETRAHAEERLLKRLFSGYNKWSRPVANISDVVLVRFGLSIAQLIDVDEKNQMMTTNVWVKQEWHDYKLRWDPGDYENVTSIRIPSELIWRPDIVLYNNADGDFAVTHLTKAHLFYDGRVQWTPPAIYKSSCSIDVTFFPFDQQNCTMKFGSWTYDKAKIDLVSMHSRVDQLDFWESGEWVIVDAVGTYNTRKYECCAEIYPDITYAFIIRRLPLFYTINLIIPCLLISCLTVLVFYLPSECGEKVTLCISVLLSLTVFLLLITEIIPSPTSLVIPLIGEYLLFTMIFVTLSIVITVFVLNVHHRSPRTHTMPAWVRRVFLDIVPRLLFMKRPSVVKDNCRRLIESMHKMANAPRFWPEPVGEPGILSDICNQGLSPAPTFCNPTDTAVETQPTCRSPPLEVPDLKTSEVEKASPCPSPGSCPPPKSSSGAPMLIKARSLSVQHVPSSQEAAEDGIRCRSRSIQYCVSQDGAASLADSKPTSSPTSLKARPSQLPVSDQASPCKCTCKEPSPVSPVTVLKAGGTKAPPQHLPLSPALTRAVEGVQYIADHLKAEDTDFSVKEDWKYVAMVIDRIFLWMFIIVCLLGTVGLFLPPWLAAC
Sequence (P12390 whole entry): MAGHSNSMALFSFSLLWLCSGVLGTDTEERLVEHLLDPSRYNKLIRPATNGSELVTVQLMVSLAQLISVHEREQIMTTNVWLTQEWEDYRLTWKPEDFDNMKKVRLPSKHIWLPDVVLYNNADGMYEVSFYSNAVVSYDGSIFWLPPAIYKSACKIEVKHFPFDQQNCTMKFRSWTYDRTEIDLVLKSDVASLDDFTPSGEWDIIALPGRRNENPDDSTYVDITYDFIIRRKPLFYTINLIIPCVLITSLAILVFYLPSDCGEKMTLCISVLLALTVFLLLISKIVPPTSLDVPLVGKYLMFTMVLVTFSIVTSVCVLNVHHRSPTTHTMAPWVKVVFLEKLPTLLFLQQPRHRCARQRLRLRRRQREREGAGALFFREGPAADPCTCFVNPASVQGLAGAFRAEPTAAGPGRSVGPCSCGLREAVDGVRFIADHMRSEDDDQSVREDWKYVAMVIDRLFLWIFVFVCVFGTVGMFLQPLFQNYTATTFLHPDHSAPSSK
Assay: Displacement of [3H]-epibatidine from rat alpha4beta2 nACh receptor expressed in rat cortical membrane preincubated for 30 mins followed by radioligand addition by […] analysis
Reply numerically in µM, unit not repeated.

Example cases with answers are listed next.
             smiles_notation  meas_value
0       Fc1cccc(C2=NCCCC2)c1        2.04
1  Brc1cc(Br)cc(C2=NCCCC2)c1        18.8
2      Clc1cccc(C2=NCCCC2)c1        11.5

Next compound, Ki to be filled in.
Summary for this compound, c1ccc(C2=NCCCC2)cc1 : Ki is 2.08

---

Organism: Homo sapiens
Assay: Selectivity ratio of Ki for rat alpha4beta2 nACh receptor to Ki for human alpha3beta4 nACh receptor
Listed here: items and their measured Ratio Ki.
The reply should be a number, written without any unit.

Example cases with answers are listed next.
>>> df
         smiles_notation  meas_value
0   Ic1cccc(C2=NCCCC2)c1         806
1   Cc1cccc(C2=NCCCC2)c1         9.4
2    c1ccc(C2=NCCCC2)cc1          11
3  Clc1cccc(C2=NCCCC2)c1         149
4    c1cncc(C2=NCCCC2)c1         0.6

Summary for this molecule, Brc1cccc(C2=NCCCC2)c1 : Ratio Ki is 168

Summary for this molecule, OCc1cc(F)cc(C2=NCCCC2)c1 : Ratio Ki is 9.3

Summary for this molecule, Fc1cc(Br)cc(C2=NCCCC2)c1 : Ratio Ki is 37

---

Organism: Homo sapiens
Assay: Selectivity ratio of Ki for rat alpha7 nACh receptor to Ki for human alpha3beta4 nACh receptor
Criterion: Ratio Ki strictly under 5. Met: T. Not met: F.

>>> print(df.to_string())
                    molecule  class
0  Brc1cc(Br)cc(C2=NCCCC2)c1      T

Threshold test, Ratio Ki < 5: Oc1cccc([C@H]2C[C@@H]3CC[C@H]2N3)c1 (racemic)
F

Threshold test, Ratio Ki < 5: Fc1cccc(C2=NCCCC2)c1
F

Threshold test, Ratio Ki < 5: Ic1cccc(C2=NCCCC2)c1
T

Threshold test, Ratio Ki < 5: Brc1cccc(C2=NCCCC2)c1
T

Threshold test, Ratio Ki < 5: OCc1cccc([C@H]2C[C@@H]3CC[C@H]2N3)c1 (racemic)
F

Threshold test, Ratio Ki < 5: c1cncc(C2=NCCCC2)c1 [ANABASEINE]
T

Threshold test, Ratio Ki < 5: OCc1cc(F)cc(C2=NCCCC2)c1
F

Threshold test, Ratio Ki < 5: Oc1cccc(C2=NCCCC2)c1
F
